- Target entity: HA of A/Kawasaki/9/86 (H1N1) virus (influenza A virus)
- Assay info: cell-based or functional assay
Measured endpoint: Neutralization IC50, H1-Kaw86 (µg/mL)

| Binder | Measured endpoint | Numeric readout |
| --- | --- | --- |
| Antibody 5 (antibody, V domains shown) VH: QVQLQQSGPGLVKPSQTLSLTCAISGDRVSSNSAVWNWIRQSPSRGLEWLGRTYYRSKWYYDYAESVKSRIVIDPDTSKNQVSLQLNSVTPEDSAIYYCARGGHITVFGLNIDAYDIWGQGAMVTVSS VL: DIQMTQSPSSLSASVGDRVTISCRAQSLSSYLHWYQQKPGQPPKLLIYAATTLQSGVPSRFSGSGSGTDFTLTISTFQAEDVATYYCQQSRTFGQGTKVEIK | Neutralization IC50, H1-Kaw86 | 1.01 |
